Reference source for all entries: patent US3954778A

Test: Acute toxicity LD50
Settings: mouse, in vivo, ip
Counter-ions that a name gives are not always drawn.
Kindly supply the reported LD50 at 72 h values for the records listed here.
Give bare numbers, in mg/kg.

Sample answers from the record:
CCN(CC)CC(=O)NC1[C@H](c2ccccc2)[C@H]1c1ccccc1 (relative stereo) [cis-trans, R1 = C2 H5, R2 = C2 H5]: 92.5
O=C(CN1CCCC1)N[C@@H]1[C@@H](c2ccccc2)[C@H]1c1ccccc1 [trans-trans, hydrochloride]: 266
O=C(CN1CCCCC1)NC1[C@H](c2ccccc2)[C@H]1c1ccccc1 (relative stereo) [cis-trans, hydrochloride]: 88
O=C(CN1CCCC1)NC1[C@H](c2ccccc2)[C@H]1c1ccccc1 (relative stereo) [cis-trans]: 67.5
CCNCC(=O)NC1[C@H](c2ccccc2)[C@H]1c1ccccc1 (relative stereo) [cis-trans, R1 = H, R2 = C2 H5, hydrochloride]: 85

Field: next compound
Task: Given CNCC(=O)NC1[C@H](c2ccccc2)[C@H]1c1ccccc1 (relative stereo) [cis-trans, R1 = H, R2 = CH3, hydrochloride] , state its recorded LD50 at 72 h.
Output: 112

----------
Test system: male albine Swiss mice
Assay: Electroshock (M.E.S.)
Assay type: in vivo
Settings: Mus musculus, sc, 0.5 h; new compounds (Table 2); as hydrochlorides, under skin 30 minutes ante; read-out: ED50 M.E.S.
Structures can show the parent of a compound that is named as a salt.
Kindly supply the reported ED50 values for the records listed here.
Numbers only, in mg/kg.

Sample answers from the record:
CC(C)N(CC(=O)NC1[C@H](c2ccccc2)[C@H]1c1ccccc1)C(C)C (relative stereo): 135
O=C(CN1CCCC1)N[C@@H]1[C@@H](c2ccccc2)[C@H]1c1ccccc1 [trans-trans, hydrochloride]: 87
CNCC(=O)NC1[C@H](c2ccccc2)[C@H]1c1ccccc1 (relative stereo) [cis-trans, R1 = H, R2 = CH3, hydrochloride]: 25.5
O=C(CN1CCCC1)NC1[C@H](c2ccccc2)[C@H]1c1ccccc1 (relative stereo) [cis-trans]: 9

Field: ED50. Fill in for each record below.
1. CN(C)CC(=O)NC1[C@H](c2ccccc2)[C@H]1c1ccccc1 (relative stereo) [cis-trans, R1 = CH3, R2 = CH3]
2. CCN(CC)CC(=O)NC1[C@H](c2ccccc2)[C@H]1c1ccccc1 (relative stereo) [cis-trans, R1 = C2 H5, R2 = C2 H5]
3. O=C(CN1CCCCC1)NC1[C@H](c2ccccc2)[C@H]1c1ccccc1 (relative stereo) [cis-trans, hydrochloride]

Output:
1: 16.5; 2: 14.2; 3: 14.5
